Property: GI50; scope: individual compounds
system: SK-MEL-2; experiment: NCI tumour cell line growth inhibition, 48 h
The source made the active and inactive calls. No stated cut-off is given here; in the data, active = GI50 up to about 1.1 µM and inactive = higher.
result-type: GI50

C=C1C(=O)OC2/C=C(\CO)C3OC3C3OC3(C)CC(OC(=O)/C(=C/C)CO)C12 (stereo not given) : > 100 µM (inactive)
COc1cc2[nH]c(=O)[nH]c2c2c(C)c[nH]c12 : > 100 µM (inactive)
O=C1CSC(c2cc3cc(Br)ccc3nc2Cl)N1c1ccc(F)c(Cl)c1 (stereo not given) : > 50 µM (inactive)
COc1ccc(N2C(=O)CC(c3c[nH]c4ccccc34)C2=O)cc1 (stereo not given) : > 100 µM (inactive)
CN(CCO)/N=N/c1[nH]cnc1C(N)=O : 22.5 µM (inactive)
COc1ccc(NC(=S)N/N=C\c2ccc(NC(C)=O)cc2)cc1 : > 100 µM (inactive)
O=C1C(CN2CCCC2)CCCC1CN1CCCC1 (stereo not given) : 18.5 µM (inactive)
Cc1cc(C)c(-c2noc(-c3ccc(Cl)cc3)c2C2=NCCCN2)c(C)c1 : 20.9 µM (inactive)
Cc1ccc(CC(Cc2ccccc2C)C(=O)O)c(C(=O)O)c1 (stereo not given) : > 100 µM (inactive)
O=C1c2ccccc2C(=O)c2c1ccc(C(=O)O)c2-c1ccc2ccccc2c1 : 19.1 µM (inactive)

----------
test system: HOP-18; experiment: NCI tumour cell line growth inhibition, 48 h
Active and inactive are the calls of the source. Rule as the data show it: active = GI50 up to about 1.1 µM and inactive = higher.
# GI50 per record follows
result-type: GI50

CCCCCCCCC(=O)NCCCNCCCNC(=O)CCCCCCCC : 11.9 µM (inactive)
Cc1ccccc1NC(=O)C(=O)CC(=O)C1CCOC1=O (stereo not given) : 7.29 µM (inactive)
Cc1ccc(-c2nnc(SCC(=O)O)[nH]2)cc1 : > 100 µM (inactive)
CC(N)Cc1ccc(Cl)cc1 (stereo not given) : > 100 µM (inactive)
N#Cc1cccc(N2C(=O)C3C4C=CC(C3C2=O)C2C(=O)N(c3cccc(C#N)c3)C(=O)C42)c1 (stereo not given) : > 65.2 µM (inactive)
COc1ccc(-c2c(N)[n+]([O-])c3cc(C)c(C)cc3[n+]2[O-])cc1OC : 28.8 µM (inactive)
Cc1cccc(C(C)C)c1NC(=O)C(=O)C(C(=O)c1ccccc1F)C1OC(=O)c2ccccc21 (stereo not given) : 3.59 µM (inactive)
O=C(O)/C=C/C(=O)N1C/C(=C\c2ccccc2)C(=O)/C(=C/c2ccccc2)C1 : 11.9 µM (inactive)
Fc1ccc2c(c1)cc1ccc3cccc4ccc2c1c34 : > 100 µM (inactive)
COc1ccc2c(c1)[n+]([O-])c(C(=O)C/C(=N/NC(=O)c1ccccc1O)C(=O)Nc1ccc(Cl)c(C(F)(F)F)c1)c(C)[n+]2[O-] : 32.6 µM (inactive)

----------
test system: SR; assay: NCI tumour cell line growth inhibition, 48 h
Calls of active or inactive are those of the source. Cut-off read from the data, not from the text of the source: active = GI50 up to about 1.1 µM and inactive = higher.
Possible outcomes: label 1 = active, label 0 = inactive

CCN(CC)c1ccc(/C=C/C2=NN(c3cccc(S(=O)(=O)O)c3)C3(C2)C(Cl)C(=O)N3c2nc3ccccc3s2)cc1 (configuration not stated) : label 0
CC(=O)c1nc2ccccc2n1C(C)C(=O)c1ccccc1 (configuration not stated) : label 0
CC(C)c1ccc2c(c1)[C@@]1(C)CC[C@H](C)C(C)(C)C1CC2 (some centres not stated) : label 0
C[N+](C)(C)CCOP(=O)([O-])OCCNC(=O)c1ccc2ccccc2c1 : label 0
Cn1ncc2c(Nc3ccc(Cl)cc3)c3ccccc3nc21 : label 0
COc1ccc(OC)c(-c2nc3n(c2/C=C2/C(=O)Nc4ccccc42)CCS3)c1 : label 0
O=C(O)c1ccccc1/C=N\N=C1NCCCCN1 : label 0
CCOc1ccc(/N=C/C=C(\Cl)c2ccc3ccccc3c2)cc1 : label 0
O=C1C(CN2CCCC2)CCCC1CN1CCCC1 (configuration not stated) : label 0
O=C1OC2C(O)COC2(O)C1(O)Cc1c[nH]c2ccccc12 (configuration not stated) : label 0
CCOC(=O)CCc1cc(=O)oc2cc(O)cc(O)c12 : label 0
CC(C)c1nc2c(Cl)c3ncccc3cc2[nH]c1=O : label 0
CN1C(=O)C2(Cc3cn(C45CC67SSC(CO)(C(=O)N6C4Nc4ccccc45)N(C)C7=O)c4ccccc34)SSC1(CO)C(=O)N2C (configuration not stated) : label 1
O=C(/C=C/c1ccccc1)CCC1C(=O)c2ccccc2C1=O : label 0
CCCCCCCCC(=O)NCCCNCCCNC(=O)CCCCCCCC : label 0
NC1CC(=O)c2c(Br)csc21 (configuration not stated) : label 0
CS(=O)(=O)OCC1CCCCCCCCCCC12SCCCS2 (configuration not stated) : label 0
CN(C)CC1COC2Cc3ccccc3C1O2 (configuration not stated) : label 0
CC(C)[Si](OC/C(=C/COC(C)(C)C)[C@H]1CC=C(C(=O)c2ccccc2N2CN(C)C(=O)N(C)C2)C1)(C(C)C)C(C)C : label 0
CC[C@H](C)N(CCN)C(=O)c1cc2ccccc2c(-c2ccccc2Cl)n1 : label 0
CN1CC[C@]23c4c5ccc(O)c4O[C@H]2C(O)CC[C@@]3(O)[C@H]1C5 (some centres not stated) : label 0
COc1cc2[nH]c(=O)[nH]c2c2c(C)c[nH]c12 : label 0
